Data origin: patent US20240316022A1

Kd: recorded values
target: FGFR1 (Homo sapiens, UniProt P11362); construct: made in house; host or cells: E. coli derived from BL21, infected with T7 phage; test: Kinase binding assay (kinase-tagged T7 phage, qPCR), Kd; conditions: read-out: FGFR1 (Kd nM)
Sequence (P11362 22-822): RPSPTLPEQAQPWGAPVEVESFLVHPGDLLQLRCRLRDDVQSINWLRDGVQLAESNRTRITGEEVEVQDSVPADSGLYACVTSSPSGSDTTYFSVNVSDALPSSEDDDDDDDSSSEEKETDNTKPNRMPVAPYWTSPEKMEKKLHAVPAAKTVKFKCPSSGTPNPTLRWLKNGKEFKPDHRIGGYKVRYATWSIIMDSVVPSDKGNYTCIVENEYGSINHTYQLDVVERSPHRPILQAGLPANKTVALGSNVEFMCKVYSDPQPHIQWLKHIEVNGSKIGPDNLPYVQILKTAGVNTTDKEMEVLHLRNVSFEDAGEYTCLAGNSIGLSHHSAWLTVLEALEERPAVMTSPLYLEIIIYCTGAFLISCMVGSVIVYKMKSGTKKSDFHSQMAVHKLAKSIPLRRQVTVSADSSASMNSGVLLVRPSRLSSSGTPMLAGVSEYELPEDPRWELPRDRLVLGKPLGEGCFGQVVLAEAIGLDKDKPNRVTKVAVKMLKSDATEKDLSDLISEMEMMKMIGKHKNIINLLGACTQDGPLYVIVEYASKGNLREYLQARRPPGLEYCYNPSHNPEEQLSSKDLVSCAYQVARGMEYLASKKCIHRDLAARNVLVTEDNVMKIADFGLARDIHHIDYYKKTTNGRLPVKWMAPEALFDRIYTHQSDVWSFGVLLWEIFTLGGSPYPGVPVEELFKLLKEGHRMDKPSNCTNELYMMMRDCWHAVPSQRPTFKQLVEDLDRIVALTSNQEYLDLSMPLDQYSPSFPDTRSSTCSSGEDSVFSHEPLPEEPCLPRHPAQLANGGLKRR

// below: answered compounds
Cc1cnnc(C)c1[C@H](C)Oc1ccc2[nH]nc(-c3cc(C#N)cc(N4CC5(CN(C)C5)C4)c3)c2c1 | > 1000 nM
Cc1cnnc(C)c1[C@@H](C)Oc1ccc2[nH]nc(-c3cc(C#N)cc(OC4CCOC4)c3)c2c1 (some centres unmarked) | 100 to 250 nM
CCS(=O)(=O)N1CCOc2ncc(-c3n[nH]c4ccc(O[C@H](C)c5c(Cl)cncc5Cl)cc34)cc21 | > 1000 nM

Ask | Entry under review: C[C@@H](Oc1ccc2[nH]nc(-c3ccc(OC4CC5(C4)CN(S(C)(=O)=O)C5)nc3)c2c1)c1c(Cl)cncc1Cl . Reported Kd?
Reply | 0.1 to 100 nM

Ask | Entry under review: Cc1ncc(Cl)c([C@@H](C)Oc2cc3c(-c4cnc5c(c4)N(S(C)(=O)=O)CCO5)n[nH]c3cc2Cl)c1Cl . Reported Kd?
Reply | > 1000 nM

Ask | Entry under review: CCN1CCC(Oc2ncc(-c3n[nH]c4ccc(O[C@H](C)c5c(Cl)cncc5Cl)cc34)cc2C#N)CC1 . Reported Kd?
Reply | 0.1 to 100 nM

Ask | Entry under review: C[C@@H](Oc1ccc2[nH]nc(-c3ccc4c(c3)C(=O)CC3(CCNCC3)O4)c2c1)c1c(Cl)cncc1Cl . Reported Kd?
Reply | 0.1 to 100 nM

Ask | Entry under review: CCN1CCC2(CCc3cc(-c4n[nH]c5ccc(O[C@H](C)c6c(Cl)cncc6Cl)cc45)ccc3O2)CC1 . Reported Kd?
Reply | 0.1 to 100 nM

Ask | Entry under review: C[C@@H](Oc1ccc2[nH]nc(-c3ccc(NC(=O)N4CCC(O)C4)nc3)c2c1)c1c(Cl)cncc1Cl (some centres unmarked) . Reported Kd?
Reply | 0.1 to 100 nM

Ask | Entry under review: Cc1cc(-c2n[nH]c3ccc(O[C@H](C)c4c(Cl)cnc(C)c4Cl)cc23)cnc1N[C@@H]1CCOC1 . Reported Kd?
Reply | 250 to 1000 nM

Ask | Entry under review: Cc1ncc(Cl)c([C@@H](C)Oc2ccc3[nH]nc(-c4ccc(N[C@@H]5CCOC5)nc4)c3c2)c1Cl . Reported Kd?
Reply | 0.1 to 100 nM

Ask | Entry under review: C[C@@H](Oc1ccc2[nH]nc(-c3ccc4c(c3)CCC3(CCNCC3)O4)c2c1)c1c(Cl)cncc1Cl . Reported Kd?
Reply | 0.1 to 100 nM

Ask | Entry under review: COc1ncc(-c2n[nH]c3ccc(O[C@H](C)c4c(C)cnnc4C)cc23)cc1C#N . Reported Kd?
Reply | 250 to 1000 nM

Ask | Entry under review: C[C@@H](Oc1ccc2[nH]nc(-c3cnc(N)c(OC(F)F)c3)c2c1)c1c(Cl)cncc1Cl . Reported Kd?
Reply | 250 to 1000 nM

Ask | Entry under review: C[C@@H](Oc1ccc2[nH]nc(-c3cnc4c(c3)NCCO4)c2c1)c1c(Cl)cncc1Cl . Reported Kd?
Reply | 0.1 to 100 nM

Ask | Entry under review: Cc1cnnc(C)c1[C@@H](C)Oc1ccc2[nH]nc(-c3cc(C#N)cc(C4CCOC4)c3)c2c1 (some centres unmarked) . Reported Kd?
Reply | 250 to 1000 nM

Ask | Entry under review: COCCNc1cc(-c2n[nH]c3ccc(O[C@H](C)c4c(Cl)cncc4Cl)cc23)ccn1 . Reported Kd?
Reply | 0.1 to 100 nM

Ask | Entry under review: COc1cc2[nH]nc(-c3ccc(N(C)C)nc3)c2cc1O[C@H](C)c1c(Cl)cnc(C)c1Cl . Reported Kd?
Reply | 0.1 to 100 nM

Ask | Entry under review: COc1cc(C#N)cc(-c2n[nH]c3cc(OC)c(O[C@@H](C)c4c(C)cnnc4C)cc23)c1 . Reported Kd?
Reply | > 1000 nM

Ask | Entry under review: COc1ncc(-c2n[nH]c3ccc(O[C@H](C)c4c(Cl)cncc4Cl)cc23)cc1NC(=O)CN(C)C . Reported Kd?
Reply | > 1000 nM

---

biological target: FGFR2 (Homo sapiens, UniProt P21802); construct: made in house; host or cells: E. coli derived from BL21, infected with T7 phage; assay: Kinase binding assay (kinase-tagged T7 phage, qPCR), Kd; details: read-out: FGFR2 (Kd nM)
Sequence (P21802 22-821): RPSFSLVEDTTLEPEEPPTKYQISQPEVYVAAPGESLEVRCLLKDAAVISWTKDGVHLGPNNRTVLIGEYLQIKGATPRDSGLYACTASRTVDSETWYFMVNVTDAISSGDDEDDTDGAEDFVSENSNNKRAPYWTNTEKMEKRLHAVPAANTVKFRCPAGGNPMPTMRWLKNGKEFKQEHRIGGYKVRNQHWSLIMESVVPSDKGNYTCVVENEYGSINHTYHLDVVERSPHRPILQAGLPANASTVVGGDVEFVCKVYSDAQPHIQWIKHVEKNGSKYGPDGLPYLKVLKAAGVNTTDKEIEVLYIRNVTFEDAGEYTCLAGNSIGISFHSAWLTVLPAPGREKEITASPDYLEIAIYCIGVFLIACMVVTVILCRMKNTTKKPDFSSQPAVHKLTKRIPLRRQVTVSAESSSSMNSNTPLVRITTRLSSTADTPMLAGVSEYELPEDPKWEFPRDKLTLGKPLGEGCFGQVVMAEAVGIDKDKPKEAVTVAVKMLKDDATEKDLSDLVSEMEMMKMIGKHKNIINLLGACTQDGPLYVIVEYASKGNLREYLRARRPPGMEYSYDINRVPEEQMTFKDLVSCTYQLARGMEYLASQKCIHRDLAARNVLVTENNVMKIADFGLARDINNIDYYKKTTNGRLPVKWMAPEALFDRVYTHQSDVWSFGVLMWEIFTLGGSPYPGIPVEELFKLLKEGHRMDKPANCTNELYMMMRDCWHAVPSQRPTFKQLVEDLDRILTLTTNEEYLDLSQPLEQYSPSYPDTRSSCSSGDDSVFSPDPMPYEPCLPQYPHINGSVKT
measured quantity: Kd

// below: answered compounds
C[C@@H](Oc1ccc2[nH]nc(-c3ccc(NC(=O)C4CC4)nc3)c2c1)c1c(Cl)cncc1Cl [Example 11] | 100 to 250 nM
C[C@@H](Oc1ccc2[nH]nc(-c3cc(C#N)cc(C4CC4)c3)c2c1)c1c(Cl)cncc1Cl [Example 109] | > 1000 nM
COc1c(C)cc(-c2n[nH]c3ccc(O[C@H](C)c4c(C)cnnc4C)cc23)cc1C#N [Example 80] | 0.1 to 100 nM
Cc1cnnc(C)c1[C@H](C)Oc1ccc2[nH]nc(-c3cc(C#N)cc(N4CC5(CN(C)C5)C4)c3)c2c1 [Example 91] | > 1000 nM
C[C@@H](Oc1ccc2[nH]nc(-c3ccc(NC(=O)N4CCN(C)CC4)nc3)c2c1)c1c(Cl)cncc1Cl [Example 19] | 0.1 to 100 nM

Then this compound:
Ask | Entry under review: C[C@@H](Oc1ccc2[nH]nc(-c3cnc(N[C@@H]4CCOC4)c(C#N)c3)c2c1)c1c(Cl)cncc1Cl [Example 130] . Reported Kd?
Reply | 0.1 to 100 nM

---

Kd: recorded values
target: FGFR1 (Homo sapiens, UniProt P11362); construct: made in house; host or cells: E. coli derived from BL21, infected with T7 phage; test: Kinase binding assay (kinase-tagged T7 phage, qPCR), Kd; conditions: read-out: FGFR1 (Kd nM)

Ask | Entry under review: Cc1cnnc(C)c1[C@@H](C)Oc1ccc2[nH]nc(-c3cc(C#N)cc(C#N)c3)c2c1 [Example 83] . Reported Kd?
Reply | 250 to 1000 nM

---

target: FGFR4 (Homo sapiens, UniProt P22455); construct: made in house; host or cells: E. coli derived from BL21, infected with T7 phage; test: Kinase binding assay (kinase-tagged T7 phage, qPCR), Kd; settings: read-out: FGFR4 (Kd nM)
Sequence (P22455 22-802): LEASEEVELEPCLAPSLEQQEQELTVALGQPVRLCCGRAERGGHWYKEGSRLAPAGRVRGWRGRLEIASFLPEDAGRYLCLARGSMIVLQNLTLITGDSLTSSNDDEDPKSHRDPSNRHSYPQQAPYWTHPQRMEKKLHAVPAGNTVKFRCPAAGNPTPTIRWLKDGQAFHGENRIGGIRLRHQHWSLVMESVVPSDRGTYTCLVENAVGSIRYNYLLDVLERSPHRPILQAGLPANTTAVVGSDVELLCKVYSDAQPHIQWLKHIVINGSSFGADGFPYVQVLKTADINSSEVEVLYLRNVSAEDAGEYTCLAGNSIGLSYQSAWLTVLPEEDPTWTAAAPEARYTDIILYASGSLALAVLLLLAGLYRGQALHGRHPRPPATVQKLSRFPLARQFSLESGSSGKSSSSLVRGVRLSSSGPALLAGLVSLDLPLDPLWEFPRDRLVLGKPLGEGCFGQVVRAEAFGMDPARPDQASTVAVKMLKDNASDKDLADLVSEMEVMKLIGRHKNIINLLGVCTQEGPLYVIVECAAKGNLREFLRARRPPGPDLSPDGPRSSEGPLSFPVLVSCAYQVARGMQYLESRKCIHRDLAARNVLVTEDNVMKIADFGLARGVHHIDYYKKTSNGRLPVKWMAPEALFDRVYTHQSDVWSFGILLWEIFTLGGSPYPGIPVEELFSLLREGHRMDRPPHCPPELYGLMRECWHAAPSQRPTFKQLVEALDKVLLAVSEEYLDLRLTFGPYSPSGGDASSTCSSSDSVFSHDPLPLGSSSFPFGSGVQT
Kd: recorded values

// below: answered compounds
Cc1ncc(Cl)c([C@@H](C)Oc2ccc3[nH]nc(-c4ccc(NC5CCOCC5)nc4)c3c2)c1Cl [Example 156] | 0.1 to 100 nM
CCN1CCC2(CC1)OCc1cc(-c3n[nH]c4ccc(O[C@H](C)c5c(Cl)cncc5Cl)cc34)ccc1O2 [Example 96] | 0.1 to 100 nM
Cc1cnnc(C)c1[C@@H](C)Oc1ccc2[nH]nc(-c3cc(C#N)cc(OC(F)(F)F)c3)c2c1 [Example 61] | 250 to 1000 nM
C[C@@H](Oc1ccc2[nH]nc(-c3ccc(NC(=O)N4CCOCC4)nc3)c2c1)c1c(Cl)cncc1Cl [Example 16] | 0.1 to 100 nM
CCN1CCC(Oc2c(C)cc(-c3n[nH]c4ccc(O[C@H](C)c5c(C)cnnc5C)cc34)cc2C#N)CC1 [Example 115] | 0.1 to 100 nM
Cc1cnnc(C)c1[C@H](C)Oc1ccc2[nH]nc(-c3cc(C#N)cc(N4CCN(C)CC4)c3)c2c1 [Example 66] | 250 to 1000 nM

Ask | Entry under review: Cc1cnnc(C)c1[C@@H](C)Oc1ccc2[nH]nc(-c3cc(C#N)cc(C4CCOC4)c3)c2c1 (stereo partly shown) [Example 90] . Reported Kd?
Reply | 0.1 to 100 nM

---

molecular target: FGFR2 (Homo sapiens); construct: made in house; host or cells: E. coli derived from BL21, infected with T7 phage; experiment: Kinase binding assay (kinase-tagged T7 phage, qPCR), Kd; conditions: read-out: FGFR2 (Kd nM)
measured quantity: Kd

// below: answered compounds
COc1ncc(-c2n[nH]c3ccc(O[C@H](C)c4c(Cl)cncc4Cl)cc23)cc1NCc1ccnc(C)c1 | > 1000 nM
Cc1ncc(Cl)c([C@@H](C)Oc2ccc3[nH]nc(-c4ccc5c(c4)COC4(CCN(CC(F)F)CC4)O5)c3c2)c1Cl | 100 to 250 nM
C[C@@H](Oc1ccc2[nH]nc(-c3cnc(N)c(OC(F)(F)F)c3)c2c1)c1c(Cl)cncc1Cl | > 1000 nM
COc1cc(OC(C)C)cc(-c2n[nH]c3ccc(O[C@H](C)c4c(C)cnnc4C)cc23)c1 | > 1000 nM
COc1ncc(-c2n[nH]c3ccc(O[C@H](C)c4c(Cl)cncc4Cl)cc23)cc1NC(=O)N1CCOCC1 | 100 to 250 nM

Ask | Please state recorded Kd (tested on FGFR2 (Homo sapiens)) of CCOCCOc1cc(C#N)cc(-c2n[nH]c3ccc(O[C@H](C)c4c(C)cnnc4C)cc23)c1
Reply | 250 to 1000 nM

Ask | Please state recorded Kd (tested on FGFR2 (Homo sapiens)) of COc1c(F)cc(-c2n[nH]c3ccc(O[C@H](C)c4c(C)cnnc4C)cc23)cc1C#N
Reply | 100 to 250 nM

Ask | Please state recorded Kd (tested on FGFR2 (Homo sapiens)) of C[C@@H](Oc1ccc2[nH]nc(-c3cnc(OCC(C)(C)O)c(C#N)c3)c2c1)c1c(Cl)cncc1Cl
Reply | 0.1 to 100 nM

Ask | Please state recorded Kd (tested on FGFR2 (Homo sapiens)) of C[C@@H](Oc1ccc2[nH]nc(-c3ccc(C(N)=O)nc3)c2c1)c1c(Cl)cncc1Cl
Reply | 0.1 to 100 nM

Ask | Please state recorded Kd (tested on FGFR2 (Homo sapiens)) of Cc1cnnc(C)c1[C@H](C)Oc1ccc2[nH]nc(-c3cc(C#N)cc(N4CCN(C)CC4)c3)c2c1
Reply | > 1000 nM

Ask | Please state recorded Kd (tested on FGFR2 (Homo sapiens)) of C[C@@H](Oc1ccc2[nH]nc(-c3cnc4c(c3)N(S(C)(=O)=O)CCO4)c2c1)c1c(Cl)cncc1Cl
Reply | 100 to 250 nM

Ask | Please state recorded Kd (tested on FGFR2 (Homo sapiens)) of CCOc1cc(-c2n[nH]c3ccc(O[C@H](C)c4c(Cl)cncc4Cl)cc23)cnc1N
Reply | > 1000 nM

Ask | Please state recorded Kd (tested on FGFR2 (Homo sapiens)) of C[C@@H](Oc1ccc2[nH]nc(-c3cnc4c(c3)N(CC(F)(F)F)CCO4)c2c1)c1c(Cl)cncc1Cl [Example 139, 2,2,2-trifluoroacetate]
Reply | > 1000 nM

Ask | Please state recorded Kd (tested on FGFR2 (Homo sapiens)) of C[C@@H](Oc1ccc2[nH]nc(-c3ccc4c(c3)COC3(CCN(C5CCC5)CC3)O4)c2c1)c1c(Cl)cncc1Cl
Reply | 0.1 to 100 nM

Ask | Please state recorded Kd (tested on FGFR2 (Homo sapiens)) of COc1cc2[nH]nc(-c3cnc4c(c3)NCCO4)c2cc1O[C@H](C)c1c(Cl)cncc1Cl
Reply | 0.1 to 100 nM
